The reader will find reported EC50 values listed item by item below.
Test system: Human immunodeficiency virus 2
experiment: Antiviral activity against HIV2 ROD infected in human MT4 cells assessed as protection against virus-induced cytotoxicity after 5 days by MTT assay
Assay type: functional, organism-based
conditions: Human immunodeficiency virus 2, ISOLATE ROD, MT4, 120 h

Worked examples, 5 molecules total:
COc1ccc(N2CCN(C(=O)c3cc4c5ccccc5n(C)c4c(-c4ccccc4)n3)CC2)cc1 :: > 210 µM
COc1cccc(N2CCN(C(=O)c3cc4c5ccccc5n(C)c4c(-c4ccccc4)n3)CC2)c1 :: > 134 µM
Cc1ccnc2c1NC(=O)c1cccnc1N2C1CC1 [NEVIRAPINE] :: > 4 µM
Cn1c2ccccc2c2cc(C(=O)N3CCN(c4ccc(Cl)cc4)CC3)nc(-c3ccccc3)c21 :: > 208 µM
Cn1c2ccccc2c2cc(C(=O)N3CCN(c4ccccc4Cl)CC3)nc(-c3ccccc3)c21 :: > 23.6 µM

input: Look at this molecule and give its reported EC50. Cn1c2ccccc2c2cc(C(=O)N3CCN(c4cccc(Cl)c4)CC3)nc(-c3ccccc3)c21
output: > 111 µM

input: Please do the same for Cn1c2ccccc2c2cc(C(=O)N3CCN(c4ccccn4)CC3)nc(-c3ccccc3)c21 as well.
output: > 19.2 µM

input: Please do the same for Cn1c2ccccc2c2cc(C(=O)N3CCN(Cc4ccccc4)CC3)nc(-c3ccccc3)c21 as well.
output: > 21.7 µM

input: Please do the same for Cn1c2ccccc2c2cc(C(=O)N3CCN(c4cccc(Cl)c4Cl)CC3)nc(-c3ccccc3)c21 as well.
output: > 63.9 µM

input: Please do the same for Cn1c2ccccc2c2cc(C(=O)N3CCN(c4ccc([N+](=O)[O-])cc4)CC3)nc(-c3ccccc3)c21 as well.
output: > 204 µM

input: Please do the same for Cc1ccccc1N1CCN(C(=O)c2cc3c4ccccc4n(C)c3c(-c3ccccc3)n2)CC1 as well.
output: > 16.9 µM

input: Please do the same for Cn1c2ccccc2c2cc(C(=O)N3CCN(c4ccncc4)CC3)nc(-c3ccccc3)c21 as well.
output: > 4.02 µM
